target: 5-hydroxytryptamine receptor 2C (Homo sapiens); assay: Agonist activity at human 5-HT2C-INI receptor isoform expressed in Flp-IN HEK293 cells assessed as induction of Gq-mediated calcium flux measured every second for 5 mins by Fluo-4 dye based FLIPR assay; type: functional, cell-based; conditions: read-out: EC50
Sequence (P28335 whole entry, canonical isoform): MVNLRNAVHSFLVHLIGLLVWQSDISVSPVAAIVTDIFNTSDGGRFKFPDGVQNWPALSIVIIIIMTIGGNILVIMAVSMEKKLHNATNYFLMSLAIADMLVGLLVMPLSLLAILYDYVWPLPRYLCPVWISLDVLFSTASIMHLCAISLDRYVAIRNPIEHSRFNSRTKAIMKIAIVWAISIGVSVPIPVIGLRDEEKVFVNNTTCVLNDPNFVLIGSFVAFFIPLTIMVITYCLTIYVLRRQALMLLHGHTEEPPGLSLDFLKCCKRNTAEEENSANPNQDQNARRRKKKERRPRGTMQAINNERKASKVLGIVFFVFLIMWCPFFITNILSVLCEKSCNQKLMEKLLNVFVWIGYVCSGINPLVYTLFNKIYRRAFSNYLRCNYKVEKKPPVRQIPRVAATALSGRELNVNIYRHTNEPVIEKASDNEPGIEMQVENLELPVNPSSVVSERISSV
pEC50 listing for selected compounds.
// field semantics: pEC50 = negative decimal log of concentration (mol/L)

Field: example entries. Status: answers known.
>>> val("COc1ccc(F)cc1C1CC1CNCc1cccnc1OC (racemic)")
6.36
>>> val("COc1cccc(CNC[C@H]2C[C@@H]2c2cc(F)ccc2OC)c1.Cl")
6.64
>>> val("C=CCOc1ccc(F)cc1[C@H]1C[C@@H]1CNCc1ccccc1OC")
8.04

QUERY: Request the reported pEC50 associated with "CNC[C@H]1C[C@@H]1c1cc(F)ccc1OC"
RESULT: 7.64

----------
pEC50 listing for selected molecules.
target: 5-hydroxytryptamine receptor 2A (Homo sapiens, UniProt P28223); assay: Agonist activity at human 5-HT2A receptor expressed in Flp-IN HEK293 cells assessed as induction of calcium flux measured every second for 5 mins by Fluo-4 dye based FLIPR assay; assay type: cell-based
Sequence (P28223 whole entry): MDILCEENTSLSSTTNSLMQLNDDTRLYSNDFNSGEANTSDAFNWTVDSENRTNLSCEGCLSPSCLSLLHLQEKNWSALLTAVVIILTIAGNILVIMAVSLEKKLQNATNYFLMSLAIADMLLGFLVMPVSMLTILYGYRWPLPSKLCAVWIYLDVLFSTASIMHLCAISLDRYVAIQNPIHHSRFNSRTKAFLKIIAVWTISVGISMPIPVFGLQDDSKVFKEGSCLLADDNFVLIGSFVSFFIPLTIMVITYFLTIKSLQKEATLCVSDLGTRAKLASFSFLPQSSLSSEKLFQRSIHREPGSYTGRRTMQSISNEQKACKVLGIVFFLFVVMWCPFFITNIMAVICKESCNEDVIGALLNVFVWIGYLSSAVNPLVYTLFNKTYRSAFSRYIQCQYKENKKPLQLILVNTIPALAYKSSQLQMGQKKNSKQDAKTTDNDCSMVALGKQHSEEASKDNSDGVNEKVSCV
// field semantics: pEC50 = negative decimal log of concentration (mol/L)

Field: example entries. Status: answers known.
>>> val("COc1ccc(F)cc1C1CC1CNCc1ccccc1C(N)=O (racemic)")
5.88
>>> val("COc1ccc(F)cc1C1CC1CNCc1ccccc1O.Cl (racemic)")
7.11
>>> val("COc1ccc(F)cc1C1CC1CNCc1cccc2cccnc12 (racemic)")
6.34
>>> val("COc1cccc(CNC[C@H]2C[C@@H]2c2cc(F)ccc2OC)c1.Cl")
5.43
>>> val("COc1ccc(F)cc1C1CC1CNCc1cccnc1OC (racemic)")
5.89

QUERY: Request the reported pEC50 associated with COc1ccc(F)cc1C1CC1CNCc1ccccc1OCCF (racemic)
RESULT: 6.40

QUERY: Then what about the molecule "COc1ccc(F)cc1[C@@H]1C[C@H]1CNCc1ccccc1Cl.Cl" ?
RESULT: 5.52

QUERY: Then what about the molecule "COc1ccc(F)cc1[C@@H]1C[C@H]1CNCc1cccs1.Cl" ?
RESULT: 6.17

QUERY: Then what about the molecule COc1ccc(F)cc1C1CC1CNC1CC1 (racemic) ?
RESULT: 5.96

QUERY: Then what about the molecule "C=CCOc1ccc(F)cc1[C@H]1C[C@@H]1CNCc1ccccc1OC" ?
RESULT: 7.55

QUERY: Then what about the molecule COc1cscc1CNCC1CC1c1cc(F)ccc1OC.Cl (racemic) ?
RESULT: 6.84

----------
target: 5-hydroxytryptamine receptor 2B (Homo sapiens, UniProt P41595); experiment: Agonist activity at human 5-HT2B receptor expressed in Flp-IN HEK293 cells assessed as induction of calcium flux up to 10 uM measured every second for 5 mins by Fluo-4 dye based FLIPR assay; format: cell-based; settings: hek293, 5 min
Sequence (P41595 whole entry): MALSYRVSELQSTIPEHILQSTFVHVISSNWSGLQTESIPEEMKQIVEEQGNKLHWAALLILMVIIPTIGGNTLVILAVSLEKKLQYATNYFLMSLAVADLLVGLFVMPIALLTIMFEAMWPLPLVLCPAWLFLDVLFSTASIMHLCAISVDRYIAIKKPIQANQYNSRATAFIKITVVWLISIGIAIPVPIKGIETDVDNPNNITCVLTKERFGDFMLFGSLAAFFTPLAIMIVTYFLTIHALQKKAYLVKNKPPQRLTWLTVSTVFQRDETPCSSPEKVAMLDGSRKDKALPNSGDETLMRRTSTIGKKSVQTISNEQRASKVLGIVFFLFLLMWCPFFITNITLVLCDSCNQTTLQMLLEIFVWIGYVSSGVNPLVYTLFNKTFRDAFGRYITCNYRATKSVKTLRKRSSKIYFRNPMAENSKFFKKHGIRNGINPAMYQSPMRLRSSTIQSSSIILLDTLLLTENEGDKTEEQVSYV
endpoint: Activity

Field: example entries. Status: answers known.
>>> val("COc1ccc(F)cc1[C@@H]1C[C@H]1CNCc1ccccc1F.Cl")
"Not Active"
>>> val("COc1ccccc1CN(C)CC1CC1c1cc(F)ccc1OC.Cl (racemic)")
"Not Active"
>>> val("COc1ccccc1CNC[C@H]1C[C@@H]1c1cc(F)ccc1OC.Cl")
"Not Active"
>>> val("COc1cccc(CNC[C@H]2C[C@@H]2c2cc(F)ccc2OC)c1.Cl")
"Not Active"
>>> val("COc1ccc(F)cc1[C@H]1C[C@@H]1CNCc1ccccc1Cl.Cl")
"Not Active"
>>> val("COc1ccc(F)cc1C1CC1CNCc1ccccc1O.Cl (racemic)")
"Not Active"

Note: attention shifts to another entry.
QUERY: Request the reported Activity associated with "COc1ccc(F)cc1[C@@H]1C[C@H]1CNCc1ccccc1Cl.Cl"
RESULT: Not Active

The measurements presented in this section are drawn from ChEMBL document CHEMBL4011649.
